Molecular target: T1, Recombinant HLA-DRB1*1104 protein (human)
T1 construct: also called DR1104
Experiment: competition with a reference peptide, residual Europium fluorescence
pIC50: −log10 of the molar value.
readout.label: pIC50

>>> assay_value("SYATNMFATWSP [FVIII2194-2205, F2196A peptide]")
"< 4.30"
